Source listed as patent US10233195B2.

Please respond with reported EC50 for every item in the list.
System: TGF-b induced Endothelin-1 production
Assay: ET-1 assay: inhibitory effect on TGF-b induced endothelin-1 production
Type: cell-based
Settings: Homo sapiens, Fibroblast; fibroblasts, stimulant (TGFb, serum, LPA etc), ET-1 in media by ELISA, 4-parameter fit
Protocol: Assay of Inhibitory Effect on TGF-b Induced Endothelin-1 Production Fibroblasts (primary human lung and dermal, HFL-1, 3T3 etc) are seeded in 96-well plates at ˜15000 cells/well and serum starved for 0-48 hours. After media exchange, compounds serially diluted in DMSO are added to the cells. […] ET-1 is quantified using an ELISA kit (R&D Systems). The amount of ET-1 produced in the assay wells are back-calculated using the ELISA standard. […]

QUERY: What EC50 appears in the records for this molecule with TGF-b induced Endothelin-1 production? Cc1cc(=O)n(-c2ccc(OC(F)(F)F)cc2)cc1-c1nnnn1C
RESULT: > 200 µM

QUERY: Another molecule: O=c1cc(C(F)(F)F)c(-c2ccc(F)cc2)cn1-c1ccc(OC(F)(F)F)cc1
RESULT: 50 to 200 µM

QUERY: Another molecule: COc1ccc(CN(C)c2cc(=O)n(-c3ccc(OC(F)(F)F)cc3)cc2-c2cnn(C)c2)cc1
RESULT: 50 to 200 µM

QUERY: Another molecule: Cc1cc(=O)n(-c2ccc(OC(F)(F)F)cc2)cc1-c1ccc2[nH]c(=O)oc2c1
RESULT: > 200 µM

QUERY: Another molecule: O=c1c2nccnc2c(-c2cn[nH]c2)cn1-c1ccc(Cl)cc1
RESULT: > 200 µM

QUERY: Another molecule: Cc1cc(=O)n(-c2ccc(OC(F)(F)F)cc2)cc1-c1ccc2ccn(C)c2c1
RESULT: < 50 µM

QUERY: Another molecule: Cc1cc(=O)n(-c2ccc(OC(F)(F)F)cc2)cc1-c1ccc(Cl)c(Cl)c1
RESULT: 50 to 200 µM

QUERY: Another molecule: Cc1cc(=O)n(-c2ccc3[nH]cnc3c2)cc1-c1cnn(C)c1
RESULT: > 200 µM

QUERY: Another molecule: O=c1c2cccnc2c(-c2ccc(F)cc2)cn1-c1ccc(OC(F)(F)F)cc1
RESULT: > 200 µM

QUERY: Another molecule: Cn1cc(-c2cn(-c3ccc(OC(F)(F)F)cc3)c(=O)cc2N2CCc3ccccc3C2)cn1
RESULT: 50 to 200 µM

QUERY: Another molecule: O=c1ccc(-c2cccc(Cl)c2)cn1-c1ccncc1
RESULT: > 200 µM

QUERY: Another molecule: CC(=O)Nc1cccc(-n2cc(-c3ccc(F)cc3)c(C)cc2=O)c1
RESULT: > 200 µM

QUERY: Another molecule: Cn1cc(-c2cn(-c3ccc(OC(F)(F)F)cc3)c(=O)cc2Nc2ccccc2)cn1
RESULT: > 200 µM

QUERY: Another molecule: Cn1cc(-c2cn(-c3ccc(OC(F)(F)F)cc3)c(=O)c3c2OCC(=O)N3)cn1
RESULT: > 200 µM

###

test system: TGF-b induced Endothelin-1 production; assay: ET-1 assay: inhibitory effect on TGF-b induced endothelin-1 production; assay type: cell-based; conditions: Homo sapiens, Fibroblast; fibroblasts, stimulant (TGFb, serum, LPA etc), ET-1 in media by ELISA, 4-parameter fit
pEC50: −log10 of the molar value.
Please respond with reported pEC50 for every item in the list.

QUERY: Can you share its pEC50? I mean this compound: Cc1cc(=O)n(-c2ccc(OC(F)(F)F)cc2)cc1-c1cccnc1 [Compound 241]
RESULT: < 3.70

QUERY: Another compound: CCOc1ccc(-n2cc(-c3cn[nH]c3)c3nccnc3c2=O)c(C)c1 [Compound 574]
RESULT: > 4.30

QUERY: Another compound: Cn1cc(C2=CN(c3ccc(OC(F)(F)F)cc3)CC=C2Oc2ccc(C(N)=O)cc2)cn1 [Compound 535]
RESULT: > 4.30

QUERY: Another compound: Cn1cc(-c2cn(-c3ccc(OC(F)(F)F)cc3)c(=O)c3nc[nH]c23)cn1 [Compound 57]
RESULT: < 3.70

QUERY: Another compound: CCn1cnc2c(-c3cnn(C)c3)cn(-c3ccc(OC(F)(F)F)cc3)c(=O)c21 [Compound 617]
RESULT: > 4.30

QUERY: Another compound: Cc1cc(=O)n(-c2ccc(OC(F)(F)F)cc2)cc1-c1cnsc1 [Compound 264]
RESULT: < 3.70

QUERY: Another compound: CCOC(=O)Nc1cc(=O)n(-c2ccc(OC(F)(F)F)cc2)cc1-c1cnn(C)c1 [Compound 137]
RESULT: < 3.70

QUERY: Another compound: Cn1cc(-c2cn(-c3ccc(C#N)cc3)c(=O)c3cccnc23)cn1 [Compound 395]
RESULT: 3.70 to 4.30

QUERY: Another compound: Cn1cc(-c2cn(-c3ccc(OC(F)(F)F)cc3)c(=O)cc2Oc2ccccc2Cl)cn1 [Compound 414]
RESULT: > 4.30

QUERY: Another compound: COc1cccc(-n2cc(-c3cn[nH]c3)ccc2=O)c1 [Compound 375]
RESULT: < 3.70

QUERY: Another compound: O=c1ccc(-c2cncnc2)cn1-c1ccc(F)cc1 [Compound 344]
RESULT: < 3.70

QUERY: Another compound: COCCOc1ccc(-n2cc(-c3cn[nH]c3)c(C)cc2=O)cc1 [Compound 24]
RESULT: < 3.70

QUERY: Another compound: Cc1cc(=O)n(-c2ccc3c(c2)OCCO3)cc1-c1ccc(F)cc1 [Compound 182]
RESULT: < 3.70

QUERY: Another compound: Cn1cc(-c2cn(-c3ccc(OC(F)(F)F)cc3)c(=O)c3nnn(CCF)c23)cn1 [Compound 687]
RESULT: > 4.30

QUERY: Another compound: Cc1ccc(=S)n(-c2ccc(OC(F)(F)F)cc2)c1 [Compound 333]
RESULT: 3.70 to 4.30

QUERY: Another compound: O=c1ccc(Br)cn1-c1cccc(F)c1 [Compound 272]
RESULT: < 3.70

QUERY: Another compound: O=c1c2[nH]nnc2c(-c2ccc(F)cc2)cn1-c1ccc(OC(F)(F)F)cc1 [Compound 681]
RESULT: 3.70 to 4.30

QUERY: Another compound: Cc1cc(=O)n(-c2ccc(OC(F)(F)F)cc2)cc1C [Compound 367]
RESULT: < 3.70

QUERY: Another compound: O=C1COc2c(-c3ccc(F)cc3)cn(-c3ccc(OC(F)(F)F)cc3)c(=O)c2N1 [Compound 52]
RESULT: < 3.70

QUERY: Another compound: Cc1cc(=O)n(-c2ccc(OC(F)(F)F)cc2)cc1-c1ccc(-c2cncs2)cc1 [Compound 206]
RESULT: 3.70 to 4.30

QUERY: Another compound: Cn1cc(-c2cn(-c3ccc(OC(F)(F)F)cc3)c(=O)cc2NCc2ccc(C#N)cc2F)cn1 [Compound 527]
RESULT: > 4.30

QUERY: Another compound: COc1ccc(-n2cc(-c3ccc(S(N)(=O)=O)cc3)ccc2=O)cc1 [Compound 328]
RESULT: < 3.70

QUERY: Another compound: CCn1nc2c(-c3cnn(C)c3)cn(-c3ccc(OCCOC)cc3)c(=O)c2n1 [Compound 688]
RESULT: 3.70 to 4.30

QUERY: Another compound: O=c1ccc(-c2cccc(Cl)c2)cn1-c1ccccc1 [Compound 313]
RESULT: 3.70 to 4.30

QUERY: Another compound: Cn1cc(-c2cn(-c3ccc(OC(F)(F)F)cc3)c(=O)cc2Cl)cn1 [Compound 122]
RESULT: < 3.70
